# test target: beluga AHR (Delphinapterus leucas)
# Sequence (Q95LD9 11-845): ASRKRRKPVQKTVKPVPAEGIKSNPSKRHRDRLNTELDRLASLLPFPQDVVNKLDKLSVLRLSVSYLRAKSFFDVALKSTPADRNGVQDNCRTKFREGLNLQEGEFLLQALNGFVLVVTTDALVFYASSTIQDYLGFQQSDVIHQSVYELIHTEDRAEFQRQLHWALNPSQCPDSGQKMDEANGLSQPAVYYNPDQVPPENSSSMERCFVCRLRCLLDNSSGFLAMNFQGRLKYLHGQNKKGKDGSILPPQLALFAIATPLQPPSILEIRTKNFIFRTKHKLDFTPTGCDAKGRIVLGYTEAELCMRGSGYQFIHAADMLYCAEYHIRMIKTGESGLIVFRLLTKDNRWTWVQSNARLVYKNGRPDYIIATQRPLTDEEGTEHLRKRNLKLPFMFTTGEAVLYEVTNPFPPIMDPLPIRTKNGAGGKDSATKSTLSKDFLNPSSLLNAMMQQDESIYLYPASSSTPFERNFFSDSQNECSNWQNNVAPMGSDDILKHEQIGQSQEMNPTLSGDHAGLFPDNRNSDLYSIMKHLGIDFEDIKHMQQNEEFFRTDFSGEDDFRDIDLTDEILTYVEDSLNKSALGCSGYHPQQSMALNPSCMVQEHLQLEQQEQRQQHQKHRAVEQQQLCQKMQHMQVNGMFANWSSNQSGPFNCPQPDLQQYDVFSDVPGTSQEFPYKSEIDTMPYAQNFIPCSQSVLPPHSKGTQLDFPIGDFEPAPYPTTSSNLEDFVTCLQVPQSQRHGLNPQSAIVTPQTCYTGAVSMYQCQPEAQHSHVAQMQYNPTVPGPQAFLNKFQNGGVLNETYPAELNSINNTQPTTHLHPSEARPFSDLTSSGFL
experimental endpoint: Ki (nM)
Number in nM, nothing else.

Given the entry Clc1cc2c(cc1Cl)Oc1cc(Cl)c(Cl)cc1O2 [TCDD, 2,3,7,8-tetrachlorodibenzo-p-dioxin, reference compound] , what Ki was observed with beluga AHR (Delphinapterus leucas)?
0.1

----------
# test target: mouse AHR (Ah^b-1 allele) (Mus musculus)
# Sequence (P30561 10-848): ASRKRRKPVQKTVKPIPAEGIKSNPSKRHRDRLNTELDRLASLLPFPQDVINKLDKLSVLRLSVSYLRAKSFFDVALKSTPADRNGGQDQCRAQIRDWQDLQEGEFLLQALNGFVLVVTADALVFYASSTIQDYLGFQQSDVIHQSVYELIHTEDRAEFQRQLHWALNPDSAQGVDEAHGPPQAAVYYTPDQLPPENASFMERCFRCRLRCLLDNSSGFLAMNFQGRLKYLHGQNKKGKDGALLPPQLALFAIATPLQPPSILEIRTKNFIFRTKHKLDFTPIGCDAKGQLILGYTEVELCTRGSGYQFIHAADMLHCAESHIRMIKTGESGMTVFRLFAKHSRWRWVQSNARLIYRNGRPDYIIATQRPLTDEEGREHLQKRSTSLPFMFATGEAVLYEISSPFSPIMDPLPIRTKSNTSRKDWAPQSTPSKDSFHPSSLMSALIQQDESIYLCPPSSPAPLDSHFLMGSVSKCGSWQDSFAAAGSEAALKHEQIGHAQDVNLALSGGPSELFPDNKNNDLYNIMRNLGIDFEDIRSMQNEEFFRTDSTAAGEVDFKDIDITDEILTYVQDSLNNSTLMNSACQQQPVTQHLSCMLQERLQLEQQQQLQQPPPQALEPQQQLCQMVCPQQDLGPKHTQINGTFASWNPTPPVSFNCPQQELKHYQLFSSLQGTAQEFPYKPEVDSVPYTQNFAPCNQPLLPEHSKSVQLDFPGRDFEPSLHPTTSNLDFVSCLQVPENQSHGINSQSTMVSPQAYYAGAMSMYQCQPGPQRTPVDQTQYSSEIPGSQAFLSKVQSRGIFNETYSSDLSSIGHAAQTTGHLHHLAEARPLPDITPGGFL
experimental endpoint: Ki (pM)
Number in pM, nothing else.

Given the entry Clc1cc2c(cc1Cl)Oc1cc(Cl)c(Cl)cc1O2 [TCDD, 2,3,7,8-tetrachlorodibenzo-p-dioxin, reference compound] , what Ki was observed with mouse AHR (Ah^b-1 allele) (Mus musculus)?
360
